Target: human recombinant serotonin (5-Hydroxytryptamine) 5-HT7 receptor (Homo sapiens)
Construct: expressed in transfected cells; host or cells: CHO
Sequence (P34969 whole entry): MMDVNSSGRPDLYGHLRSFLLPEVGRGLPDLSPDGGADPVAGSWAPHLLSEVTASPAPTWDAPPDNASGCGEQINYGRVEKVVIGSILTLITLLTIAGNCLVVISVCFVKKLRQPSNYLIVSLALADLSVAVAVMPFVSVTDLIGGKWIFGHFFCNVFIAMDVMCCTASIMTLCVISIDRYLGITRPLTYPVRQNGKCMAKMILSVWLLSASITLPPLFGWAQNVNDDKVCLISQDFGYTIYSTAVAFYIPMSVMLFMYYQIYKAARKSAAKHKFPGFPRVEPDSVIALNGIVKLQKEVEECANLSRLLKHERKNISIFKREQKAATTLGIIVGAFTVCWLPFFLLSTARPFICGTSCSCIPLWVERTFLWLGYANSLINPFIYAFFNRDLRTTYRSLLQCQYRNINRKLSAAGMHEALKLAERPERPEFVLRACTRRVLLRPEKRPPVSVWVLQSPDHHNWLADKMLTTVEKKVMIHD
Assay: Serotonin 5-HT7 radioligand binding ([3H]LSD)
Details: compound at 0.1 μM; read-out: Inhibition of ligand binding, Serotonin 5-HT7 (percent inhibition of specific binding)
Reported inhibition at 0.1 µM values follow for various molecules
# value in %; strip the unit string

Reference set, count: 7
Given the entry Cc1ccc2c(c1)c1c(n2-c2ccc(-c3ccc(F)nc3)cn2)CCN(C)C1 [Compound No. 142] , what inhibition at 0.1 µM was observed with human recombinant serotonin (5-Hydroxytryptamine) 5-HT7 receptor (Homo sapiens)? 22

Given the entry Cc1ccc2c(c1)c1c(n2-c2cscc2-c2cnn(C)c2)CCN(C)C1 [Compound 30] , what inhibition at 0.1 µM was observed with human recombinant serotonin (5-Hydroxytryptamine) 5-HT7 receptor (Homo sapiens)? 94

Given the entry CNC(=O)c1ccc(-c2cscc2-n2c3c(c4cc(C)ccc42)CN(C)CC3)cn1 [Compound No. 73] , what inhibition at 0.1 µM was observed with human recombinant serotonin (5-Hydroxytryptamine) 5-HT7 receptor (Homo sapiens)? 66

Given the entry COc1ccc(-n2c3c(c4cc(C)ccc42)CN(C)CC3)cn1 [Compound 17] , what inhibition at 0.1 µM was observed with human recombinant serotonin (5-Hydroxytryptamine) 5-HT7 receptor (Homo sapiens)? 1

Given the entry Cc1ccc2c(c1)c1c(n2-c2cccc(-c3ccc(F)cc3)c2)CCN(C)C1 [Compound 61] , what inhibition at 0.1 µM was observed with human recombinant serotonin (5-Hydroxytryptamine) 5-HT7 receptor (Homo sapiens)? 48

Given the entry Cc1csc(-c2ccc(-n3c4c(c5cc(C)ccc53)CN(C)CC4)nc2)c1 [Compound No. 144] , what inhibition at 0.1 µM was observed with human recombinant serotonin (5-Hydroxytryptamine) 5-HT7 receptor (Homo sapiens)? 37

Given the entry Cc1ccc2c(c1)c1c(n2-c2ccc3c(c2)CCN(C=O)C3)CCN(C)C1 [Compound No. 77] , what inhibition at 0.1 µM was observed with human recombinant serotonin (5-Hydroxytryptamine) 5-HT7 receptor (Homo sapiens)? 35

With those in mind, consider the next molecule.
Given the entry Cc1ccc2c(c1)c1c(n2-c2ccc(-c3cccc4[nH]ncc34)cn2)CCN(C)C1 [Compound No. 147] , what inhibition at 0.1 µM was observed with human recombinant serotonin (5-Hydroxytryptamine) 5-HT7 receptor (Homo sapiens)? 14
